assay: Chemical stability in phosphate buffer assessed as hydrolysis half life at pH 2.0; format: physicochemical
endpoint.name: t1/2 (h)
Dear colleague, please return just the value in h, with no unit written.

Problem: I'd like to know its t1/2. The molecule in question is CC(=O)OC[C@@H]1OC[C@H](n2cc(C)c(=O)[nH]c2=O)O1
Solution: 26.33

Problem: I'd like to know its t1/2. The molecule in question is Cc1cn([C@H]2CO[C@@H](COC(=O)[C@@H](N)Cc3ccccc3)O2)c(=O)[nH]c1=O.Cl
Solution: 9.17

Problem: I'd like to know its t1/2. The molecule in question is Cc1cn([C@H]2CO[C@@H](COC(=O)[C@@H](N)CC(C)C)O2)c(=O)[nH]c1=O.Cl
Solution: 14.5

Problem: I'd like to know its t1/2. The molecule in question is CCCCCCCC(=O)OC[C@@H]1OC[C@H](n2cc(C)c(=O)[nH]c2=O)O1
Solution: 30

Problem: I'd like to know its t1/2. The molecule in question is CC[C@H](C)[C@H](N)C(=O)OC[C@@H]1OC[C@H](n2cc(C)c(=O)[nH]c2=O)O1.Cl
Solution: 13.3

Problem: I'd like to know its t1/2. The molecule in question is Cc1cn([C@H]2CO[C@@H](COC(=O)CN)O2)c(=O)[nH]c1=O.Cl
Solution: 8.67

Problem: I'd like to know its t1/2. The molecule in question is Cc1cn([C@H]2CO[C@@H](COC(=O)C(C)(C)N)O2)c(=O)[nH]c1=O.Cl
Solution: 15.3

Problem: I'd like to know its t1/2. The molecule in question is Cc1cn([C@H]2CO[C@@H](COC(=O)[C@@H](N)CCC(=O)O)O2)c(=O)[nH]c1=O.Cl
Solution: 3.17

Problem: I'd like to know its t1/2. The molecule in question is Cc1cn([C@H]2CO[C@@H](COC(=O)[C@@H]3CCCN3)O2)c(=O)[nH]c1=O.Cl
Solution: 3.83

---

assay: Chemical stability in phosphate buffer assessed as hydrolysis half life at pH 2.0; assay type: physicochemical
Hi, to clarify the labels: criterion met covers t1/2 from 10 h upward, criterion not met covers anything below 10 h.

Problem: Can Cc1cn([C@H]2CO[C@@H](COC(=O)[C@@H](N)Cc3c[nH]c4ccccc34)O2)c(=O)[nH]c1=O.Cl be said to have t1/2 at or above 10 h?
Solution: criterion not met

Problem: Can Cc1cn([C@H]2CO[C@@H](COC(=O)C(C)(C)C)O2)c(=O)[nH]c1=O be said to have t1/2 at or above 10 h?
Solution: criterion met

Problem: Can Cc1cn([C@H]2CO[C@@H](COC(=O)[C@H](N)Cc3ccccc3)O2)c(=O)[nH]c1=O.Cl be said to have t1/2 at or above 10 h?
Solution: criterion not met

Problem: Can Cc1cn([C@H]2CO[C@@H](COC(=O)C3CCCCC3)O2)c(=O)[nH]c1=O be said to have t1/2 at or above 10 h?
Solution: criterion met

Problem: Can Cc1cn([C@H]2CO[C@@H](COC(=O)C3CC3)O2)c(=O)[nH]c1=O be said to have t1/2 at or above 10 h?
Solution: criterion met

Problem: Can Cc1cn([C@H]2CO[C@@H](COC(=O)[C@H](N)C(C)C)O2)c(=O)[nH]c1=O.Cl be said to have t1/2 at or above 10 h?
Solution: criterion met

Problem: Can Cc1cn([C@H]2CO[C@@H](COC(=O)[C@H](C)N)O2)c(=O)[nH]c1=O.Cl be said to have t1/2 at or above 10 h?
Solution: criterion met

Problem: Can CCCCC(=O)OC[C@@H]1OC[C@H](n2cc(C)c(=O)[nH]c2=O)O1 be said to have t1/2 at or above 10 h?
Solution: criterion met

Problem: Can Cc1cn([C@H]2CO[C@@H](COC(=O)[C@@H](N)C(C)C)O2)c(=O)[nH]c1=O.Cl be said to have t1/2 at or above 10 h?
Solution: criterion met

---

test: Chemical stability in Tris-HCl buffer assessed as hydrolysis half life at pH 8 in presence of porcine esterase; type: physicochemical; conditions: pig, isolated protein
Consider the following compounds; for each one, report its t1/2.
Dear colleague, please return just the value in min, with no unit written.

Problem: I'd like to know its t1/2. The compound in question is Cc1cn([C@H]2CO[C@@H](COC(=O)[C@@H](N)CC(C)C)O2)c(=O)[nH]c1=O.Cl
Solution: 17.9

Problem: I'd like to know its t1/2. The compound in question is CCCCCCCCCCCC(=O)OC[C@@H]1OC[C@H](n2cc(C)c(=O)[nH]c2=O)O1
Solution: 41

Problem: I'd like to know its t1/2. The compound in question is Cc1cn([C@H]2CO[C@@H](COCOC(=O)C(C)(C)C)O2)c(=O)[nH]c1=O
Solution: 17.6

Problem: I'd like to know its t1/2. The compound in question is Cc1cn([C@H]2CO[C@@H](COC(=O)CN)O2)c(=O)[nH]c1=O.Cl
Solution: 12.4

Problem: I'd like to know its t1/2. The compound in question is CC[C@H](C)[C@H](N)C(=O)OC[C@@H]1OC[C@H](n2cc(C)c(=O)[nH]c2=O)O1.Cl
Solution: 17.5

Problem: I'd like to know its t1/2. The compound in question is Cc1cn([C@H]2CO[C@@H](COC(=O)C3CCCCC3)O2)c(=O)[nH]c1=O
Solution: 19.3

Problem: I'd like to know its t1/2. The compound in question is Cc1cn([C@H]2CO[C@@H](COC(=O)C(C)(C)N)O2)c(=O)[nH]c1=O.Cl
Solution: 13.4

Problem: I'd like to know its t1/2. The compound in question is Cc1cn([C@H]2CO[C@@H](COC(=O)[C@H](N)C(C)C)O2)c(=O)[nH]c1=O.Cl
Solution: 19.4

Problem: I'd like to know its t1/2. The compound in question is Cc1cn([C@H]2CO[C@@H](COC(=O)[C@H](C)N)O2)c(=O)[nH]c1=O.Cl
Solution: 13.9

Problem: I'd like to know its t1/2. The compound in question is CCCCCCCC(=O)OC[C@@H]1OC[C@H](n2cc(C)c(=O)[nH]c2=O)O1
Solution: 29

Problem: I'd like to know its t1/2. The compound in question is CCCCCCCCCCCCCCCC(=O)OC[C@@H]1OC[C@H](n2cc(C)c(=O)[nH]c2=O)O1
Solution: 48

Problem: I'd like to know its t1/2. The compound in question is Cc1cn([C@H]2CO[C@@H](COC(=O)[C@@H]3CCCN3)O2)c(=O)[nH]c1=O.Cl
Solution: 13.6

---

Consider the following compounds; for each one, report its pEC50.
test system: Human immunodeficiency virus 1; test: Antiviral activity against HIV1 LAI infected in PBM cells; conditions: Human immunodeficiency virus 1, LAI, PBMC
In simple prose, pEC50 is minus the logarithm base ten of a concentration in moles per litre.

Problem: I'd like to know its pEC50. The compound in question is Cc1cn([C@H]2CO[C@@H](COC(=O)[C@H](C)N)O2)c(=O)[nH]c1=O.Cl
Solution: 6.01

Problem: I'd like to know its pEC50. The compound in question is Cc1cn([C@H]2CO[C@@H](COC(=O)C(C)(C)C)O2)c(=O)[nH]c1=O
Solution: 5.89

Problem: I'd like to know its pEC50. The compound in question is Cc1cn([C@H]2CO[C@@H](COCOC(=O)C(C)(C)C)O2)c(=O)[nH]c1=O
Solution: 5.85

Problem: I'd like to know its pEC50. The compound in question is Cc1cn([C@H]2CO[C@@H](COC(=O)[C@@H](N)C(C)C)O2)c(=O)[nH]c1=O.Cl
Solution: 6.25

Problem: I'd like to know its pEC50. The compound in question is CCCCCCCC(=O)OC[C@@H]1OC[C@H](n2cc(C)c(=O)[nH]c2=O)O1
Solution: 6.22

Problem: I'd like to know its pEC50. The compound in question is CC[C@H](C)[C@H](N)C(=O)OC[C@@H]1OC[C@H](n2cc(C)c(=O)[nH]c2=O)O1.Cl
Solution: 5.52

Problem: I'd like to know its pEC50. The compound in question is CC(=O)OC[C@@H]1OC[C@H](n2cc(C)c(=O)[nH]c2=O)O1
Solution: 5.54

Problem: I'd like to know its pEC50. The compound in question is Cc1cn([C@H]2CO[C@@H](COC(=O)[C@H](N)C(C)C)O2)c(=O)[nH]c1=O.Cl
Solution: 6.01

Problem: I'd like to know its pEC50. The compound in question is Cc1cn([C@H]2CO[C@@H](COC(=O)C3CCCCC3)O2)c(=O)[nH]c1=O
Solution: 5.89

Problem: I'd like to know its pEC50. The compound in question is Cc1cn([C@H]2CO[C@@H](COC(=O)CN)O2)c(=O)[nH]c1=O.Cl
Solution: 5.60

Problem: I'd like to know its pEC50. The compound in question is Cc1cn([C@H]2CO[C@@H](COC(=O)C3CC3)O2)c(=O)[nH]c1=O
Solution: 5.33

Problem: I'd like to know its pEC50. The compound in question is CCCCC(=O)OC[C@@H]1OC[C@H](n2cc(C)c(=O)[nH]c2=O)O1
Solution: 6.40

Problem: I'd like to know its pEC50. The compound in question is Cc1cn([C@H]2CO[C@@H](COC(=O)[C@@H](N)Cc3c[nH]c4ccccc34)O2)c(=O)[nH]c1=O.Cl
Solution: 5.77

Problem: I'd like to know its pEC50. The compound in question is Cc1cn([C@H]2CO[C@@H](COC(=O)[C@@H](N)Cc3ccccc3)O2)c(=O)[nH]c1=O.Cl
Solution: 6.06

Problem: I'd like to know its pEC50. The compound in question is Cc1cn([C@H]2CO[C@@H](COC(=O)C(C)(C)N)O2)c(=O)[nH]c1=O.Cl
Solution: 5.66

Problem: I'd like to know its pEC50. The compound in question is Cc1cn([C@H]2CO[C@@H](COC(=O)[C@@H](N)CC(C)C)O2)c(=O)[nH]c1=O.Cl
Solution: 5.48

Problem: I'd like to know its pEC50. The compound in question is Cc1cn([C@H]2CO[C@@H](COC(=O)[C@@H](N)CCC(=O)O)O2)c(=O)[nH]c1=O.Cl
Solution: 6.05

Problem: I'd like to know its pEC50. The compound in question is Cc1cn([C@H]2CO[C@@H](COC(=O)[C@H](N)Cc3ccccc3)O2)c(=O)[nH]c1=O.Cl
Solution: 6.00

Problem: I'd like to know its pEC50. The compound in question is Cc1cn([C@H]2CO[C@@H](COC(=O)[C@@H]3CCCN3)O2)c(=O)[nH]c1=O.Cl
Solution: 5.85

Problem: I'd like to know its pEC50. The compound in question is CCCCCCCCCCCCCCCC(=O)OC[C@@H]1OC[C@H](n2cc(C)c(=O)[nH]c2=O)O1
Solution: 4.63

Problem: I'd like to know its pEC50. The compound in question is CCCCCCCCCCCC(=O)OC[C@@H]1OC[C@H](n2cc(C)c(=O)[nH]c2=O)O1
Solution: 6.40
